Recorded measurements of log10 IC50, one per entry
target: i20S (20S immunoproteasome) (Homo sapiens, UniProt P20618+P28062); assay: 20S proteasome assay, chymotrypsin-like activity (LLVY), i20S; type: biochemical; conditions: LLVY i20S Hu 1 h CONT: IC50 (nM), succinyl-Leu-Leu-Val-Tyr-AMC
Remember, log10 of IC50, in nM.

Below: 3 compounds and their reported log10 IC50.
COMPOUND: CCOCC(=O)N[C@@H](C)C(=O)N[C@@H](Cc1ccc(OC)cc1)C(=O)N[C@@H](CC1CCCC1)C(=O)[C@@]1(C)CO1 [Compound C-2020]
log10 IC50: 2.75

COMPOUND: COc1ccc(C[C@H](NC(=O)[C@H](CO)NC(C)=O)C(=O)N[C@@H](Cc2ccccc2)C(=O)[C@@]2(C)CO2)cc1 [Compound C-2007]
log10 IC50: 2.07

COMPOUND: COc1ccc(C[C@H](NC(=O)[C@@H](C)NC(=O)C2=C(C)c3ccccc3C2)C(=O)N[C@@H](CC2CCCC2)C(=O)[C@@]2(C)CO2)cc1 [Compound C-2040]
log10 IC50: 2.80

Inquiry: Fetch value of log10 IC50 on i20S (20S immunoproteasome) (Homo sapiens, UniProt P20618+P28062) for COc1ccc(C[C@H](NC(=O)[C@@H](NC(=O)OCc2ccccc2)C2COC2)C(=O)N[C@@H](Cc2ccccc2)C(=O)[C@@]2(C)CO2)cc1 [Compound C-2035] .
Reply text: 0.66

Inquiry: Fetch value of log10 IC50 on i20S (20S immunoproteasome) (Homo sapiens, UniProt P20618+P28062) for COc1ccc(C[C@H](NC(=O)[C@H](C)NC(=O)Cc2cc(C)no2)C(=O)N[C@@H](CC2CCCC2)C(=O)[C@@]2(C)CO2)cc1 [Compound C-2014] .
Reply text: 1.22

Inquiry: Fetch value of log10 IC50 on i20S (20S immunoproteasome) (Homo sapiens, UniProt P20618+P28062) for COc1ccc(C[C@H](NC(=O)[C@@H](C)NC(=O)c2cccnc2)C(=O)N[C@@H](CC2CCCC2)C(=O)[C@@]2(C)CO2)cc1 [Compound C-2032] .
Reply text: 2.03
